Parameter IC50: see the listing below.
SYSTEM_NAME: Receptor-type tyrosine-protein kinase FLT3 (Homo sapiens, UniProt P36888, D835Y/ITD)
Write down the numeric answer in nM and omit the unit.

Examples with answers:
{"columns": ["COMPOUND", "SYSTEM_NAME", "UNIT_LABEL", "IC50"],
 "data": [
  ["CCCOc1cc2nccc(Oc3ccc(NC(=O)Nc4cc(C(C)(C)C)on4)cc3F)c2cc1OC", "Receptor-type tyrosine-protein kinase FLT3 (Homo sapiens, UniProt P36888, D835Y/ITD)", "nM", 14.9],
  ["CC(C)(C)c1cc(NC(=O)Nc2ccc(Oc3ccnc4nc[nH]c34)c(F)c2)no1", "Receptor-type tyrosine-protein kinase FLT3 (Homo sapiens, UniProt P36888, D835Y/ITD)", "nM", 12.4],
  ["COc1cc2c(Oc3ccc(NC(=O)Nc4cc(C(C)(C)C)on4)cc3F)ccnc2cc1OCC1CO1 (stereo not drawn)", "Receptor-type tyrosine-protein kinase FLT3 (Homo sapiens, UniProt P36888, D835Y/ITD)", "nM", 3540],
  ["COCCOc1cc2nccc(Oc3ccc(NC(=O)Nc4cc(C(C)(C)C)on4)cc3F)c2cc1OC", "Receptor-type tyrosine-protein kinase FLT3 (Homo sapiens, UniProt P36888, D835Y/ITD)", "nM", 5.35],
  ["COc1cc2nccc(Oc3ccc(NC(=O)Nc4cc(C(C)(C)C)on4)cc3F)c2cc1OC", "Receptor-type tyrosine-protein kinase FLT3 (Homo sapiens, UniProt P36888, D835Y/ITD)", "nM", 3.48],
  ["CC(C)(C)c1cc(NC(=O)Nc2ccc(Oc3ncnc4[nH]ncc34)c(F)c2)no1", "Receptor-type tyrosine-protein kinase FLT3 (Homo sapiens, UniProt P36888, D835Y/ITD)", "nM", 130],
  ["CCOc1cc2nccc(Oc3ccc(NC(=O)Nc4cc(C(C)(C)C)on4)cc3F)c2cc1OCC", "Receptor-type tyrosine-protein kinase FLT3 (Homo sapiens, UniProt P36888, D835Y/ITD)", "nM", 15.5],
  ["COc1cc2c(Oc3ccc(NC(=O)Nc4cc(C(C)(C)C)on4)cc3F)ccnc2cc1OCCCN1CCOCC1", "Receptor-type tyrosine-protein kinase FLT3 (Homo sapiens, UniProt P36888, D835Y/ITD)", "nM", 5.09]
]}

Query: IC50 for CC(C)(C)c1cc(NC(=O)Nc2ccc(Oc3ccnc4[nH]ccc34)c(F)c2)no1 ?
Reply: 741

Query: Which IC50 value is on record for CC(C)(C)c1cc(NC(=O)Nc2ccc(Oc3ccnc4cc(OCC5CCCC5)c(OCC5CCCC5)cc34)c(F)c2)no1 ?
Reply: 27.9

Query: Look up IC50: CCCOc1cc2c(Oc3ccc(NC(=O)Nc4cc(C(C)(C)C)on4)cc3F)ccnc2cc1OC
Reply: 160

###

SYSTEM_NAME: Receptor-type tyrosine-protein kinase FLT3 (Homo sapiens, UniProt P36888, ITD)
Type: cell-based, BaF3
Description: Inhibition of FLT3 ITD mutant (unknown origin) expressed in mouse BaF3 cells
pIC50: −log10 of the molar value.
# pIC50 >= 8 gives T, anything below gives F

Query: Reported pIC50 reaches at least 8 for CC(C)(C)c1cc(NC(=O)Nc2ccc(Oc3ccnc4[nH]ncc34)c(F)c2)no1 ?
Reply: T

Query: Evaluate CCOc1cc2nccc(Oc3ccc(NC(=O)Nc4cc(C(C)(C)C)on4)cc3F)c2cc1OC : pIC50 at minimum 8?
Reply: T

Query: Given COc1cc2c(Oc3ccc(NC(=O)Nc4cc(C(C)(C)C)on4)cc3F)ccnc2cc1OCCCN1CCOCC1 , state whether its pIC50 is at least 8.
Reply: T

src = ChEMBL document CHEMBL4699484
